Test: pKa titration
Format: physicochemical
Settings: 66 percent dmf, in 66 percent DMF; read-out: pKa (first)
Procedure: A reaction mixture containing 450 mg. of leurosine, 15 ml. of tetrahydrofurane (THF), 8 ml. of anhydrous hydrazine, and 6 ml. of methanol were heated in a sealed glass bomb for 3 days at 50° C. […] Removal of the solvent in vacuo yielded 4-desacetylleurosine C-3 carboxhydrazide as a residue shown by TLC to contain trace quantities of leurosine and of 4-desacetylleurosine. […]
parameter: pKa

I have this compound here, CCC12CN3CCc4c([nH]c5ccccc45)C(C(=O)OC)(c4cc5c(cc4OC)N(C)C4C(O)(C(=O)NN)C(O)C6(CC)C=CCN7CCC54C76)CC(C3)C1O2 (stereo not shown) [4-desacetylleurosine C-3 carboxhydrazide, 4-Desacetylleurosine C-3 Carboxhydrazide] , and I need its recorded pKa.
5.32

---

Assay: pKa titration
Assay type: physicochemical
Conditions: 66 percent dmf, in 66 percent DMF; read-out: pKa (second)
parameter: pKa
Could you respond with only the numeric value?

I have this molecule here, CCC12CN3CCc4c([nH]c5ccccc45)C(C(=O)OC)(c4cc5c(cc4OC)N(C)C4C(O)(C(=O)NN)C(O)C6(CC)C=CCN7CCC54C76)CC(C3)C1O2 (stereo not shown) [4-desacetylleurosine C-3 carboxhydrazide, 4-Desacetylleurosine C-3 Carboxhydrazide] , and I need its recorded pKa.
7.12
